Recorded protein stability index values for a group of variants are listed next.
B1: CLCN6 (parent)
chain: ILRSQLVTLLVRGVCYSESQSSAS

Variants of: B1
Test: protein stability index of a GFP-peptide fusion (GPS, HEK-293T) (PSI 1-6); higher = more stable;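 further: lentivirally expressed fusions sorted by FACS into six bins by GFP to DsRed ratio, PSI derived from sequencing read proportions per bin multiplied by bin number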
Conditions: c terminus: a fixed tail appended

VARIANT_DESCRIPTION	protein stability index
V14M	1.59
L6N	1.76
S19A	4.08
T8W	2.28
S19M	3.15
L6R	2.67
R12A	2.38
I1P	2.04
G13P	2.69
T8K	2.88
S24K	2.49
V14E	1.47
R3C	3.38
Q20H	2.27
I1R	2.09
S22P	2.17
S17G	2.54
Y16H	2.77
S24T	2.7
E18K	5.27
S22F	4.37
V7W	1.96
S24V	2.87
L9F	4.09
R3M	2.62
L10G	1.92
C15Y	4.15
L6V	1.64
S21F	2.54
A23E	2.41
L10S	1.31
Q5Y	3.81
G13F	4.5
S19D	2.21
L6K	2.08
Q20D	1.56
S19W	2.92
S17E	2.11
Q20I	1.93
S19T	4.83
